These entries and their values trace back to patent USRE47404E1.

Below is a list of entries, each paired with its recorded EC90 value.
Tested on: HCV replication in five HCV genotype 1-derived replicon cell lines
Assay: Median over the five HCV replicon cell lines
Format: cell-based, hepatitis C virus
Conditions: Hepatitis C virus; median of the replicon cell lines
Provide only the numeric value, understood in µM.

Check out these entries, answers already filled in.
>  <COMPOUND>
NC(=O)c1ncn([C@@H]2O[C@H](CO)[C@@H](O)[C@H]2O)n1

>  <SYSTEM_UNDER_TEST>
HCV replication in five HCV genotype 1-derived replicon cell lines

>  <EC90 (µM)>
122

$$$$
>  <COMPOUND>
C[C@@]1(O)[C@H](O)[C@@H](CO)O[C@H]1n1ccc(N)nc1=O

>  <SYSTEM_UNDER_TEST>
HCV replication in five HCV genotype 1-derived replicon cell lines

>  <EC90 (µM)>
8.1

$$$$
>  <COMPOUND>
CC(=O)Oc1ccccc1C(=O)Nc1ncc([N+](=O)[O-])s1 [Nitazoxanide, nitazoxanide]

>  <SYSTEM_UNDER_TEST>
HCV replication in five HCV genotype 1-derived replicon cell lines

>  <EC90 (µM)>
1

$$$$

Ask: Param item = O=C(Nc1ncc([N+](=O)[O-])s1)c1ccccc1O [Tizoxanide, tizoxanide] ; retrieve measured EC90.
Reply: 0.77

###

Experiment: Cytotoxicity, neutral red dye uptake, H/FL-Neo
Assay type: cell-based
Conditions: human
MEASURED_ENDPOINT: CC50 at 3 days (µM)
Expressed in µM, but write only the number.

Ask: Find the recorded CC50 at 3 days belonging to O=C(Nc1ncc([N+](=O)[O-])s1)c1ccccc1O [Tizoxanide, tizoxanide] and report it.
Reply: 4.2

Ask: Moving on to the next compound: CC(=O)Oc1ccccc1C(=O)Nc1ncc([N+](=O)[O-])s1 [Nitazoxanide, nitazoxanide]
Reply: 49

###

Assay: Cytotoxicity, neutral red dye uptake, AVA5
Type: cell-based
Details: human, AVA5 cell cultures, mono and combination treatments (Table 2)
MEASURED_ENDPOINT: CC50 at 3 days (µM)
Number in µM, nothing else.

>  <COMPOUND>
O=C(Nc1ncc([N+](=O)[O-])s1)c1ccccc1O [Tizoxanide, tizoxanide]

>  <RESULT_UNIT>
µM

>  <CC50 at 3 days>
15

$$$$

Ask: I would be grateful if you could share the reported CC50 at 3 days for CC(=O)Oc1ccccc1C(=O)Nc1ncc([N+](=O)[O-])s1 [Nitazoxanide, nitazoxanide] .
Reply: 38

###

compounds and their reported CC50 at 3 days
Assay: Cytotoxicity, neutral red dye uptake, AVA5
Type: cell-based
Conditions: human, AVA5

>  <COMPOUND>
O=C(Nc1ncc([N+](=O)[O-])s1)c1ccccc1O [Tizoxanide, tizoxanide]

>  <MEASURED_ENDPOINT>
CC50 at 3 days

>  <READOUT_VALUE>
25 µM

$$$$

// moving on: another record for CC50 at 3 days
Ask: Recorded CC50 at 3 days for CC(=O)Oc1ccccc1C(=O)Nc1ncc([N+](=O)[O-])s1 [Nitazoxanide, nitazoxanide] , please?
Reply: 39 µM

###

Assay: Cytotoxicity, neutral red dye uptake, 4-3-10
Format: cell-based
Conditions: human
Reported CC50 at 3 days is given for each of the following compounds.
Give the value, in units of µM, as a plain number.

>  <COMPOUND>
O=C(Nc1ncc([N+](=O)[O-])s1)c1ccccc1O [Tizoxanide, tizoxanide]

>  <CC50 at 3 days / µM>
21

$$$$

Proceeding to the next compound to report its CC50 at 3 days.
Ask: Tell me the measured CC50 at 3 days of CC(=O)Oc1ccccc1C(=O)Nc1ncc([N+](=O)[O-])s1 [Nitazoxanide, nitazoxanide] , please.
Reply: 34
